Kindly supply the reported enrichment ratio values for the records listed here.
B1: PhoQ; a variant is named by its letters at X, in order, P23837 (parent)
chain: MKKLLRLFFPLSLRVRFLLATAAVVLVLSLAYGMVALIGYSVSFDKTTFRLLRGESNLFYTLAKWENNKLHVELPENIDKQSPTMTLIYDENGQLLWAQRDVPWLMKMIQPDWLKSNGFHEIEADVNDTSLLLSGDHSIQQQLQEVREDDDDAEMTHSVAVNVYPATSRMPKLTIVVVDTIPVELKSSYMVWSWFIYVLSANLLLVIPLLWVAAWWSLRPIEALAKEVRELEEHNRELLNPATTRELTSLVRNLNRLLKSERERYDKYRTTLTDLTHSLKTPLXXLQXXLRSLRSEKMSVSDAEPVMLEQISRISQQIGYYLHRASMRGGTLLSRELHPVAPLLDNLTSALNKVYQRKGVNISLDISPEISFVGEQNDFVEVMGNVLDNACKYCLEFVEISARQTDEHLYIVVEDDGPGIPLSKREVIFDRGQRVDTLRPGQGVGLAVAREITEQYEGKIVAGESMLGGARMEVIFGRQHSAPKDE

variants of: B1; assay: enrichment ratio after two sorts for PhoP signalling (ratio (wild type AVST 3.29)); higher = more functional; settings: with PhoP (E. coli)
The full ranking holds about 140,000 sequences; the median of “enrichment ratio after two sorts for PhoP signalling” is about 0, and the highest 2% start at about 11. This is one part of a sample in which the highest values are shown more often than they occur.
Numbers only.

>  <MUTATION CODE>
SSVA

>  <enrichment ratio>
10.9

$$$$

List enrichment ratio for every entry below, keeping the order given.
1. MSWN
2. SSVL

1: 8.63; 2: 13.8

List enrichment ratio for every entry below, keeping the order given.
1. GTGM
2. FSVL
3. TRVL

1. 6.32
2. 11.7
3. 11.6
